Tested on: MS2 coat protein
protocol details: apparent KD of MS2 coat protein; designed switch direction (-1 OFF switch, 1 ON switch): 1; higher = weaker reporter binding
assay conditions: input ligand: FMN 200 uM
endpoint: apparent KD of MS2 coat protein (nM)
The reply should contain only the number, in nM.

{"columns": ["sequence input", "numeric readout"],
 "data": [
  ["GGGAGAGGUACAGGAUAUGGUGAGGAUCACCCACUAGAAGGGUGCACAUGUGAAUCGGACAUGAGGAUCACCCAUGUUUGGCGU (Eterna round: R96, puzzle: Same State NG 1)", 86.7],
  ["GCUGCAAUAAACGCCUACAUGAGGAUCACCCAUGUAUGUAGGCAGGAUAUCGUUUGCAAAGCAAACGAGAAGGGCCGUAGUAGC [Mat - Same State NG 3 - JL Mod - D35] (Eterna round: R96, puzzle: Same State NG 3)", 26.3],
  ["ACAUGAGGAUCACCCAUGUAACACCUGAAAAUAAAACGAACACAGGAUAUCCCAGCAUGACGCCGGGAGAAGGGUGAUCGAAGA [Quorer] (Eterna round: R96, puzzle: Same State NG 3)", 124],
  ["UUAUUAUUUACAUGAGGAUCACCCAUGUUUUUAUGUCAGAGACAGGAUAUAGUAGUCUCGUUUUACUAGAAGGGUCUUUUUAUU [JR_SSNG3_Sub017] (Eterna round: R96, puzzle: Same State NG 3)", 15.2],
  ["GCCGCGUUUCGCGCCUACAUGAGGAUCACCCAUGUUUGUAGGCAGGAUAUCGUCCGCUUUGCGGGCGAGAAGGGCUGUUGUGGC [salish99_SSNG3_R04_021] (Eterna round: R96, puzzle: Same State NG 3)", 47],
  ["GCUACCAUUGAAGCCAACAUGAGGAUCACCCAUGUAUGUUGGUAGGAUAUCGAUUGCAAAGCGAUCGAGAAGGGCUAAGGUAGC [Mat - Same State NG 3 - JL Mod - D81] (Eterna round: R96, puzzle: Same State NG 3)", 81.2],
  ["ACAUGAGACUUAGGAUAUGUUGUACCUACAUGUGACAUGAGGAUCACCCAUGUGGUAAGUAUGAGACAGAAGGAAGAGAUAUGU [Equivalence 29 - Jieux - Same State NG 2] (Eterna round: R96, puzzle: Same State NG 2)", 7.53],
  ["AGCUAAAACGAAGGAUAUACAAACAUGAGGAUCACCCAUGUAUACAUGGUUUGUUGUGACCACAUGUAGAAGGUCGUACUAACA [SameState NG2 #18] (Eterna round: R96, puzzle: Same State NG 2)", 178]
]}

# ---- query sequence ----
Which apparent KD of MS2 coat protein value belongs to AGUCCAGCCUGAGCUGGACAAAGGCAUGUACAUGAGGAUCACCCAUGUCAUGUACAAGCUUUUUGCUCGUCUUAAUA [Zipper 49 - 1] (Eterna round: R96, puzzle: Sensor for hsa-mir-208a) ? 211

----------
The reader will find reported apparent KD of K4 kissing-loop reporter values listed item by item below.
Test system: K4 kissing-loop RNA reporter;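 note: bound reporter read as fluorescence of individual clusters on recovered sequencing chips by microscopy, with normalized cluster intensities fitted with a binding model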
protocol details: apparent KD of K4 kissing-loop reporter; higher = weaker reporter binding
assay conditions: Eterna round: R107; input ligand: theophylline 20 uM
The reply should contain only the number, in nM.

Guide cases for apparent KD of K4 kissing-loop reporter, answers given:
{"columns": ["sequence input", "endpoint", "numeric readout"],
 "data": [
  ["GGAGGGAUCUCGGCCGCCACUCAUAAGAAAUGAACCUAAGAAAUAUAGUGAUGUUAUAUAAAGAAGAGGACCGGGAGAAAGGAGG [ExTryptoB.A]", "apparent KD of K4 kissing-loop reporter", 555],
  ["GCCGUACGCAUGGAUACCAGAUCUAGACGCUUAGUGAUGUUAAGUAAUCUGGUUAGACCGAUCCCUUGGCAGCCAUGCGUACGGC", "apparent KD of K4 kissing-loop reporter", 203],
  ["GCCGUACGCAUGGAUACCAGAUGGCACUAUAAUCUACCAGAGUGAUGUUCUGGCCUGCCCAUCCCUUGGCAGCCAUGCGUACGGC", "apparent KD of K4 kissing-loop reporter", 171],
  ["AAUAACUAGUAUUUUUUUAAUAAUACAGAUACCAGUGAUAAUAAACACCCUUGGCAGCUGAUCGAGUGAUGUUCGUUUAUUUUAA [JR_SSTheophyA_Sub003]", "apparent KD of K4 kissing-loop reporter", 112],
  ["UACUAUAGUGAUGUUAUAGAUAAAACAGAUACCAGUGUUACAUAACACCCUUGGCAGCUGAAAAGGGAAAGUAUAAAUGUGUAUU [AstrosSSTHe-A#1newdesignED]", "apparent KD of K4 kissing-loop reporter", 125]
]}

# ---- query sequence ----
Which apparent KD of K4 kissing-loop reporter value belongs to `GCCGUAGAUUGAAGGAGCGGCACCCACGGCUCUAACACCUAAGUGAUGUUUAGGUAGUGGUGCCAGGUAGGUCGCAAUCUACGGC` ? 133
